System: Jurkat cells
Test: Adaptation to G2 cell cycle arrest (G1 increment) in X-ray pre-arrested Jurkat cells, flow cytometry
Type: cell-based, human
Details: Homo sapiens, Jurkat, 24 h, Table 1; concentration causing half-maximal increase of % cells in G1 phase (G1 increment); Jurkat pre-arrested by 10 Gy X-ray, 24 hours with compound
EXPERIMENTAL_ENDPOINT: IC50 (µM)

Previously resolved entries follow.
{"COMPOUND": "CC1=C(C)C(=O)N(Nc2ccc(C(F)(F)F)cc2Br)C1=O [Compound S00624]", "READOUT_VALUE": 10}
{"COMPOUND": "CC1=C(C)C(=O)N(Cc2ccc(C(F)(F)F)c(F)c2)C1=O [Compound S00412]", "READOUT_VALUE": 10}
{"COMPOUND": "CC1=C(C)C(=O)N(Nc2cccc3ccccc23)C1=O [Compound S00475]", "READOUT_VALUE": 3.75}

I = CC1=C(C)C(=O)N(Nc2ccc3c(c2)C(C)(C)CCC3(C)C)C1=O [Compound S00698]
II = CC1=C(C)C(=O)N(Nc2ccc(-c3ccccc3)cc2)C1=O [Compound S00515]
QUERY: I'm curious whether I or II has the smaller IC50 number. Which is it? Selection: enter the item's label.
RESULT: I
